Could you please report measured inhibition for the items listed next?
Biological target: Glycogen synthase kinase-3 beta (Homo sapiens) (UniProt P49841)
Sequence (P49841 whole entry, looked up): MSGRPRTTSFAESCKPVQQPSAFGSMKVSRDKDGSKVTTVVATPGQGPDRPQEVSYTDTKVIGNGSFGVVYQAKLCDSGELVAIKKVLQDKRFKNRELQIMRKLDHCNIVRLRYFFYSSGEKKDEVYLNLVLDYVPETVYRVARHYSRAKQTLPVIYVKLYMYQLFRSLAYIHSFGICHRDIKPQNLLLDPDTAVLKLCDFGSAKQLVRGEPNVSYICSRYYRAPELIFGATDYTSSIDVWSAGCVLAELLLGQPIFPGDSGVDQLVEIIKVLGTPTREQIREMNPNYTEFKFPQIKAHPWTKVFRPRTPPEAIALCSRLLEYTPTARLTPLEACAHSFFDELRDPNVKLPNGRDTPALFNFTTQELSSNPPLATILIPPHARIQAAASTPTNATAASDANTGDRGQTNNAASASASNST
Assay: In vitro percent inhibition of Glycogen synthase kinase 3 beta at 10 uM concentration of compound dissolved in 100% DMSO using 5''-[gamma-33P]-triphosphate
Please reply with the bare figure in % and do not write the unit itself.

Lab note: measured inhibition of O=C(O)CCc1ccc(-c2nc3cc4ccccc4cc3nc2-c2ccc(CCC(=O)O)s2)s1 was 23

Lab note: measured inhibition of Oc1cc2nc(-c3cccs3)c(-c3cccs3)nc2cc1O was 5

Lab note: measured inhibition of O=C(O)CCCc1ccc(-c2nc3cc4ccccc4cc3nc2-c2ccc(CCCC(=O)O)s2)s1 was 13

Lab note: measured inhibition of O=C(O)c1ccc2cc3nc(-c4cccs4)c(-c4cccs4)nc3cc2c1 was 4

* * *

Target: Proto-oncogene tyrosine-protein kinase Src (Homo sapiens)
Assay: In vitro percent inhibition of c-Src tyrosine kinase at 10 uM concentration of compound dissolved in 100% DMSO using 5''-[gamma-33P]-triphosphate
Property name: inhibition (%)
Please reply with the bare figure in % and do not write the unit itself.

Lab note: measured inhibition of c1csc(-c2nc3cc4ccccc4cc3nc2-c2cccs2)c1 was 20

Lab note: measured inhibition of O=C(O)c1ccc2cc3nc(-c4cccs4)c(-c4cccs4)nc3cc2c1 was 83

Lab note: measured inhibition of c1csc(-c2nc3cc4c(cc3nc2-c2cccs2)OCCCO4)c1 was 75

Lab note: measured inhibition of c1csc(-c2nc3cc4c(cc3nc2-c2cccs2)OCO4)c1 was 71

Lab note: measured inhibition of Oc1cc2nc(-c3cccs3)c(-c3cccs3)nc2cc1O was -3

Lab note: measured inhibition of O=C(O)c1ccc(-c2nc3cc4ccccc4cc3nc2-c2ccc(C(=O)O)s2)s1 was 20

Lab note: measured inhibition of O=C(O)Cc1csc(-c2nc3cc4ccccc4cc3nc2-c2cc(CC(=O)O)cs2)c1 was 29

Lab note: measured inhibition of c1csc(-c2nc3cc4c(cc3nc2-c2cccs2)OCCO4)c1 was 84

Lab note: measured inhibition of O=C(O)C1COc2cc3nc(-c4cccs4)c(-c4cccs4)nc3cc2O1 (stereo unspecified) was 19

Lab note: measured inhibition of COc1cc2nc3nc(-c4cccs4)c(-c4cccs4)nc3nc2cc1OC was 9

Lab note: measured inhibition of COC(=O)Cc1csc(-c2nc3cc4ccccc4cc3nc2-c2cc(CC(=O)OC)cs2)c1 was 8

* * *

Target: Tyrosine-protein kinase transforming protein Abl (Abelson murine leukemia virus) (UniProt P00521)
Sequence (P00521 whole entry): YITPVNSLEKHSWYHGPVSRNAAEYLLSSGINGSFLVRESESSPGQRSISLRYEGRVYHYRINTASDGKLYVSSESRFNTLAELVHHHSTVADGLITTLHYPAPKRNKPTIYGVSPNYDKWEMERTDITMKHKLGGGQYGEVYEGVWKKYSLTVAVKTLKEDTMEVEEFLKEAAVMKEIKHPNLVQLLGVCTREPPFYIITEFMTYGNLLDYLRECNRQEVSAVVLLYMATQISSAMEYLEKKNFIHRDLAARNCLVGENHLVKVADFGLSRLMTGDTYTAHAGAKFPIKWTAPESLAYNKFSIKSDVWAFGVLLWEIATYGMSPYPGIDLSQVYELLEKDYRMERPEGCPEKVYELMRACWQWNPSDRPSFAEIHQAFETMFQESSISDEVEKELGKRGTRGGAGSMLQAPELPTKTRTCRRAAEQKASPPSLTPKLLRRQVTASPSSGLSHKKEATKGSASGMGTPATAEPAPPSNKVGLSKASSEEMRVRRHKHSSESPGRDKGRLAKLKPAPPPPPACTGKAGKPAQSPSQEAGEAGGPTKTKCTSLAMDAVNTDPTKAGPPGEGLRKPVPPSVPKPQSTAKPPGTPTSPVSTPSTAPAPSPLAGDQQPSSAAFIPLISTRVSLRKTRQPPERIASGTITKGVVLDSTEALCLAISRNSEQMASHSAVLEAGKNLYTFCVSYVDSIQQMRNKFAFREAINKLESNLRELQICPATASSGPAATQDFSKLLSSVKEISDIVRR
Assay: In vitro percent inhibition of v-Abl tyrosine kinase at 10 uM concentration of compound dissolved in 100% DMSO using 5''-[gamma-33P]-triphosphate
Property name: inhibition (%)
Please reply with the bare figure in % and do not write the unit itself.

Lab note: measured inhibition of O=C(O)Cc1csc(-c2nc3cc4ccccc4cc3nc2-c2cc(CC(=O)O)cs2)c1 was -7

Lab note: measured inhibition of c1csc(-c2nc3cc4ccccc4cc3nc2-c2cccs2)c1 was 4

Lab note: measured inhibition of c1csc(-c2nc3cc4c(cc3nc2-c2cccs2)OCCO4)c1 was 11

Lab note: measured inhibition of COC(=O)Cc1csc(-c2nc3cc4ccccc4cc3nc2-c2cc(CC(=O)OC)cs2)c1 was -10

Lab note: measured inhibition of O=C(O)Cc1ccc(-c2nc3cc4ccccc4cc3nc2-c2ccc(CC(=O)O)s2)s1 was 10

Lab note: measured inhibition of COC(=O)CCc1ccc(-c2nc3cc4ccccc4cc3nc2-c2ccc(CCC(=O)OC)s2)s1 was -8

Lab note: measured inhibition of O=C(O)CCc1ccc(-c2nc3cc4ccccc4cc3nc2-c2ccc(CCC(=O)O)s2)s1 was 3

Lab note: measured inhibition of Oc1cc2nc(-c3cccs3)c(-c3cccs3)nc2cc1O was 1

Lab note: measured inhibition of COC(=O)CCCc1ccc(-c2nc3cc4ccccc4cc3nc2-c2ccc(CCCC(=O)OC)s2)s1 was 15
